System: KB (oral squamous)
Experiment: MTT cytotoxicity assay, 48 hours (Example 14)
Assay type: cell-based, human
Details: 1 nM
Source text: The cytotoxic effect of peptide sequences SEQ ID NO: 9, SEQ ID NO: 10, SEQ ID NO: 11 and SEQ ID NO: 12, were studied by MTT assay which is based on the principle of uptake of MTT[3-[4,5-dimethylthiazol-2-yl]-2,5-diphenyl tetrazolium bromide], a tetrazolium salt by the metabolically active cells where it is metabolized by active mitochondria into a blue colored formazan product which can be read spectrophotometrically. Tumor cells KB (oral squamous). […]
Non-standard residues stand in square brackets, D forms with d. Residues, ends and D or L forms follow the SMILES beside them. *: point of attachment. Octanoyl = CCCCCCCC(=O)*; Ac5c = NC1(C(=O)O)CCCC1; Deg = CCC(N)(CC)C(=O)O; Aib = CC(C)(N)C(=O)O; Butyryl = CCCC(=O)*
The entries below are paired with their reported Percentage cytotoxicity.
Record the value in %, omitting the unit from your answer.

The value of Percentage cytotoxicity measured for the compound CCCCCCCC(=O)N[C@H](Cc1ccccc1)C(=O)N[C@@H](CCC(N)=O)C(=O)N[C@@H](Cc1c[nH]c2ccccc12)C(=O)N[C@@H](C)C(=O)N[C@H](C(=O)NC(C)(C)C(=O)N[C@@H](Cc1c[nH]cn1)C(=O)N[C@@H](CC(C)C)C(N)=O)C(C)C [SEQ ID: 12] (Octanoyl-[dF]QWAV[Aib]HL-NH2) turned out to be 26.6

The compound listed as CCC(CC)(NC(=O)[C@H](Cc1c[nH]c2ccccc12)NC(=O)[C@H](CCC(N)=O)NC(=O)[C@H](N)Cc1ccccc1)C(=O)N[C@H](C(=O)NCC(=O)N[C@@H](Cc1c[nH]cn1)C(=O)N[C@@H](CC(C)C)C(N)=O)C(C)C [SEQ ID: 9, D-Phe-Gln-Trp-Deg-Val-Gly-His-Leu-NH2] (H-[dF]QW[Deg]VGHL-NH2; N-terminus assumed) shows Percentage cytotoxicity equal to 32.6

GET /value?item= CC(C)C[C@H](NC(=O)[C@H](Cc1c[nH]cn1)NC(=O)C1(NC(=O)[C@@H](NC(=O)[C@H](C)NC(=O)[C@H](Cc2c[nH]c3ccccc23)NC(=O)[C@H](CCC(N)=O)NC(=O)[C@H](N)Cc2ccccc2)C(C)C)CCCC1)C(N)=O [SEQ ID: 10, D-Phe-Gln-Trp-Ala-Val-Ac5c-His-Leu-NH2] (H-[dF]QWAV[Ac5c]HL-NH2; N-terminus assumed) &field=Percentage cytotoxicity returns 31.1

For CCCC(=O)N[C@H](Cc1ccccc1)C(=O)N[C@@H](CCC(N)=O)C(=O)N[C@@H](Cc1c[nH]c2ccccc12)C(=O)N[C@@H](C)C(=O)N[C@H](C(=O)NC(C)(C)C(=O)N[C@@H](Cc1c[nH]cn1)C(=O)N[C@@H](CC(C)C)C(N)=O)C(C)C [SEQ ID: 11] (Butyryl-[dF]QWAV[Aib]HL-NH2) the compound record lists Percentage cytotoxicity as 33.1

Source listed as patent US6989371B1.
